The reported numbers originate from patent US4492693A.

For each record, write down the corresponding MIC.
- System: Staph. aureus
- assayRemarks: Expanded Spectrum MIC (Table II)
- Format: cell-based
- details: Staphylococcus aureus, strain S228
One number for each entry, in µg/mL.

Okay, here is my list. What is MIC for each of these?
1. CC1=C(C(=O)O)N2C(=O)C(NC(=O)[C@H](N)c3csc4ccc(F)cc34)C2SC1 (stereo partly drawn)
2. CON=C(C(=O)NC1C(=O)N2C(C(=O)O)=C(C)CSC12)c1csc2cc(OC)ccc12 (stereo not drawn)
3. CC1=C(C(=O)O)N2C(=O)C(NC(=O)[C@H](N)c3csc4cc(F)ccc34)C2SC1 (stereo partly drawn)
4. CC1=C(C(=O)O)N2C(=O)C(NC(=O)[C@H](N)c3csc4c(F)cccc34)C2SC1 (stereo partly drawn)
5. CC1=C(C(=O)O)N2C(=O)C(NC(=O)C(N)c3csc4ccccc34)C2SC1 (stereo not drawn)

[out]
1: 1; 2: 2; 3: 0.5; 4: 2; 5: 1

[in] Tell me the measured MIC of CC1=C(C(=O)O)N2C(=O)C(NC(=O)[C@H](N)c3csc4cccc(F)c34)C2SC1 (stereo partly drawn) , please.
[out] 4
